# self-cleavage kobs at 640 uM GlcN6P annotations
B1: glmS ribozyme (parent)
chain: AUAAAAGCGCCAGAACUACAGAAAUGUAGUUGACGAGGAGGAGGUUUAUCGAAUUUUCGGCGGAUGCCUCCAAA

Variants of: B1
Experiment: self-cleavage kobs at 640 uM GlcN6P; higher = faster cleavage; RNA array
Settings: with glucosamine-6-phosphate
This sample holds only a part of the variants without activity.
MEASURED PARAMETER: self-cleavage kobs at 640 uM GlcN6P (s⁻¹)

VAR	QUALIFIER SIGN	VAL
C10U G32A U49A	<	1e-05
U31C G37A A53G	=	5.04e-05
G13U G29U G32A	=	0.000242
C8U A12C G43C U49C	<	1e-05
C19A A53U	=	0.00276
U31A G35C A48G	<	1e-05
A14G A52G	=	0.00106
A52U A53G G59C	<	1e-05
U49G A53C	=	7.82e-05
G13A U56A A64G	=	8.33e-05
A36G U55C C67U	<	1e-05
C58U G66C	<	1e-05
U54C U65A	=	0.00147
A33U A64U	<	1e-05
C16U G37U G51C	<	1e-05
A33U C50U C68U	<	1e-05
G32A U49C C50G	<	1e-05
G37A U55G C70U	=	0.000222
U31A A39C C50G C71A	<	1e-05
C61G C70G C71G	=	0.000223
G9A G37A U46C	<	1e-05
C11A A53C G66U	<	1e-05
